Target: Sodium-dependent serotonin transporter (Homo sapiens, UniProt P31645)
Sequence (P31645 whole entry): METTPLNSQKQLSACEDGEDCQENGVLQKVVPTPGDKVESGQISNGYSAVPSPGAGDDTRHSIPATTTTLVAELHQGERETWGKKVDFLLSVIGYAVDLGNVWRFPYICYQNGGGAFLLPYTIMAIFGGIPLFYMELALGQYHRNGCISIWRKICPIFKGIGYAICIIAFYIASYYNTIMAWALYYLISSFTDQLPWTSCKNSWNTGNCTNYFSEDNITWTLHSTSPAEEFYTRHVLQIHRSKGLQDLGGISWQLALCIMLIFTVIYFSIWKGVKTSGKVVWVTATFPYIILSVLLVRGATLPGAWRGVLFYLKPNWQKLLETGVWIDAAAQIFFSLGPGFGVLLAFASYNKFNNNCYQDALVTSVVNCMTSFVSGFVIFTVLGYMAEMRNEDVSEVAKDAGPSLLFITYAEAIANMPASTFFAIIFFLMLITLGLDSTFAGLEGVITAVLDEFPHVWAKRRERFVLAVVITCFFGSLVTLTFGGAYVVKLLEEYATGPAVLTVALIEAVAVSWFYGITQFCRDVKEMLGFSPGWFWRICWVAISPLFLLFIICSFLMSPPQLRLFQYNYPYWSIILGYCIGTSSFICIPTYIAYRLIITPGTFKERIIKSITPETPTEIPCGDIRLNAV
Assay: Inhibition of serotonin reuptake at SERT expressed in HEK293 cells
pIC50: −log10 of the molar value.
Where pIC50 equals or exceeds 6, the correct label is True; where it does not, the label is False.

{"molecule": "Clc1ccc([C@]23CCCC[C@@H]2CNC3)cc1Cl (racemic; 19a)", "class label": "False"}
{"molecule": "CN1C[C@@H]2CCC[C@]2(c2ccc(Cl)c(Cl)c2)C1 (racemic)", "class label": "True"}
{"molecule": "CN1C[C@H]2CCCC[C@@]2(c2ccc3ccccc3c2)C1", "class label": "True"}
{"molecule": "c1ccc2cc([C@]34CCC[C@H]3CNC4)ccc2c1", "class label": "True"}

---

half-life at 3 µM values for the compounds below.
Assay: Half life in human liver microsomes at 3 uM by LC-MS/MS analysis
Type: ADME, Microsome
measure name: half-life at 3 µM (min)

{"compound": "CN1C[C@H]2CCCC[C@@]2(c2ccc3ccccc3c2)C1", "measure name": "half-life at 3 µM", "measurement qualifier": "=", "measured number": 17}
{"compound": "CCN1C[C@@H]2CCCC[C@]2(c2ccc(Cl)c(Cl)c2)C1 (single isomer, unassigned)", "measure name": "half-life at 3 µM", "measurement qualifier": "=", "measured number": 55}
{"compound": "Clc1ccc([C@]23CCCC[C@H]2CNC3)cc1Cl", "measure name": "half-life at 3 µM", "measurement qualifier": ">", "measured number": 300}
{"compound": "c1ccc2cc([C@]34CCC[C@H]3CNC4)ccc2c1", "measure name": "half-life at 3 µM", "measurement qualifier": "=", "measured number": 25}
{"compound": "c1ccc2cc([C@@]34CCC[C@@H]3CNC4)ccc2c1", "measure name": "half-life at 3 µM", "measurement qualifier": "=", "measured number": 28}
{"compound": "CN1C[C@@H]2CCCC[C@]2(c2ccc3ccccc3c2)C1", "measure name": "half-life at 3 µM", "measurement qualifier": "=", "measured number": 46}
{"compound": "CN1C[C@H]2CCC[C@@]2(c2ccc3ccccc3c2)C1", "measure name": "half-life at 3 µM", "measurement qualifier": "=", "measured number": 19}
{"compound": "Clc1ccc([C@@]23CCC[C@@H]2CNC3)cc1Cl", "measure name": "half-life at 3 µM", "measurement qualifier": "=", "measured number": 262}
{"compound": "CN1C[C@@H]2CCCC[C@]2(c2ccc(Cl)c(Cl)c2)C1", "measure name": "half-life at 3 µM", "measurement qualifier": "=", "measured number": 62}
{"compound": "CCN1C[C@H]2CCCC[C@@]2(c2ccc(Cl)c(Cl)c2)C1", "measure name": "half-life at 3 µM", "measurement qualifier": "=", "measured number": 68}
{"compound": "CN1C[C@H]2CCC[C@@]2(c2ccc(Cl)c(Cl)c2)C1", "measure name": "half-life at 3 µM", "measurement qualifier": "=", "measured number": 37}
{"compound": "CN1C[C@H]2CCCC[C@@]2(c2ccc(Cl)c(Cl)c2)C1 (single isomer, unassigned)", "measure name": "half-life at 3 µM", "measurement qualifier": "=", "measured number": 125}
{"compound": "CN1C[C@H]2CCCC[C@@]2(Cc2ccc(Cl)c(Cl)c2)C1 (stereo in doubt)", "measure name": "half-life at 3 µM", "measurement qualifier": "=", "measured number": 121}
{"compound": "CN1C[C@@H]2CCC[C@]2(c2ccc(Cl)c(Cl)c2)C1 (single isomer, unassigned)", "measure name": "half-life at 3 µM", "measurement qualifier": "=", "measured number": 28}
{"compound": "Clc1ccc([C@@]23CCCC[C@@H]2CNC3)cc1Cl", "measure name": "half-life at 3 µM", "measurement qualifier": ">", "measured number": 300}
{"compound": "CN1C[C@@H]2CCC[C@]2(c2ccc3ccccc3c2)C1", "measure name": "half-life at 3 µM", "measurement qualifier": "=", "measured number": 36}
{"compound": "Clc1ccc([C@]23CCC[C@H]2CNC3)cc1Cl (single isomer, unassigned)", "measure name": "half-life at 3 µM", "measurement qualifier": "=", "measured number": 22}
{"compound": "Clc1ccc(C[C@@]23CCCC[C@@H]2CNC3)cc1Cl", "measure name": "half-life at 3 µM", "measurement qualifier": ">", "measured number": 300}
